target: Protein kinase C beta type (Homo sapiens)
Sequence (P05771 whole entry): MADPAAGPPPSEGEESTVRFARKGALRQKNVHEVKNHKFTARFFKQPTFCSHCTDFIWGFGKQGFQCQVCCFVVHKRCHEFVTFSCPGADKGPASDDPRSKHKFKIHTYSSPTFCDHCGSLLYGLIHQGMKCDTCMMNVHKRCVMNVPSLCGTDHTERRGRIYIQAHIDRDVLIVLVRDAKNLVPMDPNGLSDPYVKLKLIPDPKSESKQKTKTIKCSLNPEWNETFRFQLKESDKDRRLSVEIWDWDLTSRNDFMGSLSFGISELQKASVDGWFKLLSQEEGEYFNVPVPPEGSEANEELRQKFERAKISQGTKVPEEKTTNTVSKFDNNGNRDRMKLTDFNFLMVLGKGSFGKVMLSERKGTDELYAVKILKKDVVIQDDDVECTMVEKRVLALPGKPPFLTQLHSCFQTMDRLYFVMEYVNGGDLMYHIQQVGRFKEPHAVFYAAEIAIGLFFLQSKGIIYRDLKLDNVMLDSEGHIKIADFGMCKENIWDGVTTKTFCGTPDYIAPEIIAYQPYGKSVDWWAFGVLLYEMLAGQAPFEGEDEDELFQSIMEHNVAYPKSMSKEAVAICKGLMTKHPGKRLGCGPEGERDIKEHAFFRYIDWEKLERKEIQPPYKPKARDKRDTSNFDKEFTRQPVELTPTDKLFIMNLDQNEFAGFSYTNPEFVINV
reportedProperty: pIC50
Scale explanation: pIC50 corresponds to minus log10 of a concentration expressed in moles per litre.

(Q) Form field: pIC50 recorded for O=C1NC(=O)C2=C1c1cn(c3ccccc13)CCCOC(CO)CCn1cc2c2ccccc21 (stereo unspecified) with Protein kinase C beta type (Homo sapiens) (enter value)
(A) 6.57
